Measured inhibition accompanies every entry in the list below.
- system under test: STK24 (human) (UniProt Q9Y6E0)
- Sequence (Q9Y6E0 whole entry, looked up): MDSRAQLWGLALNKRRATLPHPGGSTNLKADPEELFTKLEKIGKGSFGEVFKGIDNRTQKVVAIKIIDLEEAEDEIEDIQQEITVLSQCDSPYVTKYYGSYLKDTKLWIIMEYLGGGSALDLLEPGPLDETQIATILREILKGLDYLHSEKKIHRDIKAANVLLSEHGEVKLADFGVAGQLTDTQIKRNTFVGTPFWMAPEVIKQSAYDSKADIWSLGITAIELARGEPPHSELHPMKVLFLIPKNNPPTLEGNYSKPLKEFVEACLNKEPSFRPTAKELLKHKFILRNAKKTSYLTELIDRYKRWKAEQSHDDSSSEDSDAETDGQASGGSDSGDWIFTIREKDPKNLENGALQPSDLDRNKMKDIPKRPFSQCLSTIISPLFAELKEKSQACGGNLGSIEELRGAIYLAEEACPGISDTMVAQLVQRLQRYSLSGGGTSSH
- assay method text: Caliper, Mobility shift assay off-chip
- assay context: compound 0.02 µM
Numbers only; they are read as %.

Consider the worked cases shown below.
>>> numeric_result("Cc1ccc(Nc2nccc(N(C)c3ccc4c(C)n(C)nc4c3)n2)cc1S(N)(=O)=O")
0.2
>>> numeric_result("COc1cc2c(Oc3ccc4[nH]c(C)cc4c3F)ncnc2cc1OCCCN1CCCC1")
2
>>> numeric_result("CNC(=O)c1ccccc1Sc1ccc2c(/C=C/c3ccccn3)n[nH]c2c1")
-1.1

Entry CNC(=O)c1cc(Oc2ccc(NC(=O)Nc3ccc(Cl)c(C(F)(F)F)c3)cc2)ccn1 ; inhibition = -3.9
